B1: TPR 5TU (parent)
chain: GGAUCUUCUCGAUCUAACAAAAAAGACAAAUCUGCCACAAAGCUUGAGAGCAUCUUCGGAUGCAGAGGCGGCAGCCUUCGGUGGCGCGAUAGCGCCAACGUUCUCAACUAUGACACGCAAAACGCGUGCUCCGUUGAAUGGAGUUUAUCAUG

Variants of: B1
methodNotes: polymerase ribozyme fitness, log enrichment relative to wild type (log ratio); higher = more active; in vitro selection for triplet polymerase activity
Fewer inactive variants are shown than the library holds.
If the reported polymerase ribozyme fitness (log ratio) equals or exceeds -2, assign 1.0. If not, assign 0.0.

Check out these entries, answers already filled in.
variantString | discreteLabel
U13C C93G C99A U127C | 0.0
U4C G50A G83A C87A A91C G92A U146A | 0.0
A52U G58C U78A A122G | 0.0

Could you verify whether the entry C43A G50A C72U G84U U90A C103A G141U shows polymerase ribozyme fitness (log ratio) of no less than -2?
0.0

Likewise for A39G G86C U109C G128U G140C ?
0.0

How about this variant: C35A U44A G70C C76U C103G U145G
0.0

Now the variant A19U A52C
1.0

One more variant: C54U U101G
1.0

Could you do the same for A115U , please?
1.0

Now the same for G88A A106G
0.0

Query A73C G81C A110G A121G next
0.0
